Each recorded value in this set is attributed to patent US10703733B2.

- Tested System: MCL-1/Bim interaction (recombinant human MCL-1 protein, residues 171-327; biotinylated human Bim peptide, residues 51-76) (Homo sapiens (Human), UniProt Q07820)
- Sequence (Q07820 171-327): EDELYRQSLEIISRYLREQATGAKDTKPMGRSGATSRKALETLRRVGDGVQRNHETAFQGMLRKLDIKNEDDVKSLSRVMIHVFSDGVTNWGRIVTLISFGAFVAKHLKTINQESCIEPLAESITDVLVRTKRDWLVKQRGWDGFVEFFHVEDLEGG
- Experimental Protocol: MCL-1/Bim Binding AlphaLISA Assay
- Condition Details: 0.0625 nM 6xHis-Mcl-1 (171-327), 0.0625 nM biotinylated-Bim peptide
pIC50: −log10 of the molar value.
Label rule, in plain words: pIC50 of 10 and up is fulfilled, under 10 is not fulfilled.

A selection of reference data follows.
- CO[C@H]1/C=C/C[C@H](C)C[S@@](=O)(NC(=O)N[C@H]2C[C@H](COC(=O)N(C)C)C2)=NC(=O)c2ccc3c(c2)N(C[C@@H]2CC[C@H]21)C[C@@]1(CCCc2cc(Cl)ccc21)CO3: not fulfilled
- CO[C@H]1/C=C/CCC[S@@](=O)(NC(=O)NCc2cnccn2)=NC(=O)c2ccc3c(c2)N(C[C@@H]2CC[C@H]21)C[C@@]1(CCCc2cc(Cl)ccc21)CO3: not fulfilled
- COCC(=O)NS1(=O)=NC(=O)c2ccc3c(c2)N(C[C@@H]2CC[C@H]2[C@@H](OC)/C=C/CCC1)C[C@@]1(CCCc2cc(Cl)ccc21)CO3 (single isomer, unassigned) [Example 7]: not fulfilled

Decide: pIC50 of CO[C@H]1/C=C/C[C@H](C)C[S@@](=O)(NC(=O)c2cc3n(n2)CCOC3)=NC(=O)c2ccc3c(c2)N(C[C@@H]2CC[C@H]21)C[C@@]1(CCCc2cc(Cl)ccc21)CO3 >= 10? fulfilled

Decide: pIC50 of CO[C@H]1/C=C/C[C@H](C)C[S@@](=O)(NC(=O)c2cn(C)nc2OCCN2CCOCC2)=NC(=O)c2ccc3c(c2)N(C[C@@H]2CC[C@H]21)C[C@@]1(CCCc2cc(Cl)ccc21)CO3 >= 10? fulfilled

Decide: pIC50 of CO[C@H]1/C=C/CCC[S@@](=O)(NC(=O)CCc2ccon2)=NC(=O)c2ccc3c(c2)N(C[C@@H]2CC[C@H]21)C[C@@]1(CCCc2cc(Cl)ccc21)CO3 >= 10? not fulfilled

Decide: pIC50 of CCOC1CN(C(=O)N[S@@]2(=O)=NC(=O)c3ccc4c(c3)N(C[C@@H]3CC[C@H]3[C@@H](OC)/C=C/C[C@H](C)C2)C[C@@]2(CCCc3cc(Cl)ccc32)CO4)C1 >= 10? fulfilled

Decide: pIC50 of CO[C@H]1/C=C/CCC[S@@](=O)(NC(=O)COc2ccnn2C)=NC(=O)c2ccc3c(c2)N(C[C@@H]2CC[C@H]21)C[C@@]1(CCCc2cc(Cl)ccc21)CO3 >= 10? not fulfilled

* * *

- Test system: SKBR3 cells
- Experimental Protocol: SKBR3 Cell Viability Assay (CellTiter Glo)
- Assay type: cell-based
- Condition Details: 72 hours, CellTiter Glo luminescence, read-out: MCL-1 CV SKBR3 EC50
Observed Property: pEC50
Scale: negative log10 of molar concentration, which is what pEC50 denotes.

* COC[C@H]1C[C@H]1NC(=O)N[S@@]1(=O)=NC(=O)c2ccc3c(c2)N(C[C@@H]2CC[C@H]2[C@@H](OC)/C=C/C[C@H](C)C1)C[C@@]1(CCCc2cc(Cl)ccc21)CO3 | 6.94

Give pEC50 for CO[C@H]1/C=C/C[C@H](C)C[S@@](=O)(NC(=O)N[C@@H]2C[C@H]2c2cnn(C)c2)=NC(=O)c2ccc3c(c2)N(C[C@@H]2CC[C@H]21)C[C@@]1(CCCc2cc(Cl)ccc21)CO3 (single isomer, unassigned) tested on SKBR3 cells. 6.71

Give pEC50 for CO[C@H]1/C=C/C[C@H](C)C[S@@](=O)(NC(=O)N[C@@H]2C[C@H]2CC(F)F)=NC(=O)c2ccc3c(c2)N(C[C@@H]2CC[C@H]21)C[C@@]1(CCCc2cc(Cl)ccc21)CO3 (single isomer, unassigned) tested on SKBR3 cells. 6.74

Give pEC50 for COc1cn(C)cc1C(=O)N[S@@]1(=O)=NC(=O)c2ccc3c(c2)N(C[C@@H]2CC[C@H]2[C@@H](O)/C=C/C[C@H](C)[C@H]1C)C[C@@]1(CCCc2cc(Cl)ccc21)CO3 tested on SKBR3 cells. 7.72

Give pEC50 for CCNC(=O)N[S@@]1(=O)=NC(=O)c2ccc3c(c2)N(C[C@@H]2CC[C@H]2[C@@H](OC)CCCCC1)C[C@@]1(CCCc2cc(Cl)ccc21)CO3 [Example 13] tested on SKBR3 cells. 5.48
